Assignment: determine reported pEC50 for the given substances.
Molecular target: hGcgR (Homo sapiens)
Sequence (P47871 26-477): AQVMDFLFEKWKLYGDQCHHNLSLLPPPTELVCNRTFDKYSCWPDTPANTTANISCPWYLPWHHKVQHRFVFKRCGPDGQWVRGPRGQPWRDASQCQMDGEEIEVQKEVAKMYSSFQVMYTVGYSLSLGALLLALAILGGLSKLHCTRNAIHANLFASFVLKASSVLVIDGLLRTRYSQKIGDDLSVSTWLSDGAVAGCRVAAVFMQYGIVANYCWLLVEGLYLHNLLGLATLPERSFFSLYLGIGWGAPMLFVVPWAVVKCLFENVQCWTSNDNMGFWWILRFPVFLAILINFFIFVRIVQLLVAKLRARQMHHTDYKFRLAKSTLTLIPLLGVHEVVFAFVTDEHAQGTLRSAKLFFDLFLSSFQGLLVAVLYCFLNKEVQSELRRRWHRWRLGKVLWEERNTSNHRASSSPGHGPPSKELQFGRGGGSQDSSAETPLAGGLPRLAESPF
Experiment: Functional cAMP activation in the presence of 0.1% casein (no HSA);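 note: intracellular cAMP rise after 30 min at 37 °C, read by HTRF against a cAMP standard curve, scaled from buffer only (0%) to maximal control ligand response (100%)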
Assay type: cell-based
Conditions: in the presence of 0.1% casein (no HSA); geometric mean; read-out: Relative cAMP EC50, hGcgR
Starred links: 1 amine or outer side, 2 acyl side, 3 side chain; linkers in the order of their positions; H or OH if unused. Non-standard residues stand in square brackets, D forms with d. Groups on a side chain read outwards from the residue. No end group written: not given here. *: point of attachment. C20 diacid = O=C(O)CCCCCCCCCCCCCCCCCCC(=O)*; C18 diacid = O=C(O)CCCCCCCCCCCCCCCCC(=O)*; Phe(4-CN) = N#Cc1ccc(C[C@H](N)C(=O)O)cc1; αMePhe(2-F) = C[C@](N)(Cc1ccccc1F)C(=O)O; γGlu = O=C(O)[C@H](CCC(=O)[*:2])N[*:1]; αMe4Pal = C[C@](N)(Cc1ccncc1)C(=O)O; αMeY = C[C@](N)(Cc1ccc(O)cc1)C(=O)O; αMeF = C[C@](N)(Cc1ccccc1)C(=O)O; 4Pal = N[C@@H](Cc1ccncc1)C(=O)O; αMeL = CC(C)C[C@](C)(N)C(=O)O; αMeS = C[C@](N)(CO)C(=O)O; Orn = NCCC[C@H](N)C(=O)O; AEEA = NCCOCCOCC(=O)O; Aib = CC(C)(N)C(=O)O
Note: pEC50 values are expressed as the negative base-10 logarithm of concentration in M.

Exercise: Param item = H-Y[Aib]QGTFTSDFS[Orn][αMeL]LDKK([AEEA-γGlu-C18 diacid])AQ[αMe4Pal]EFIEYLIE[Aib]GPSSGAPPPSGS-NH2 [Example 879] ; retrieve measured pEC50.
Key: 8.67

Exercise: Param item = Y[Aib]QGTFTSDFS[Orn][αMeL]LDKK([AEEA-γGlu-C18 diacid])AQ[Aib]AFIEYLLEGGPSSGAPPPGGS-NH2 [Example 62] ; retrieve measured pEC50.
Key: 8.40

Exercise: Param item = H-Y[Aib]QGT[αMePhe(2-F)]TSD[Phe(4-CN)]SILLDKQAQK([AEEA-γGlu-γGlu-C20 diacid])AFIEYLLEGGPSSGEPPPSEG-NH2 [Example 352] ; retrieve measured pEC50.
Key: 7.79

Exercise: Param item = H-Y[Aib]QGTFTSD[4Pal]SQ[αMeL]LDKK([γGlu-AEEA-γGlu-C18 diacid])AQ[αMe4Pal]AFIEYLIE[Aib]GPSSGAPPPSGS-NH2 [Example 861] ; retrieve measured pEC50.
Key: 8.07

Exercise: Param item = H-Y[Aib]QGTFTSDFS[Orn][αMeL]LD[Orn]K([γGlu-γGlu-C18 diacid])AQ[Aib]AFIE[αMe4Pal]LLEGGPSSGAPPPGGSEE-NH2 [Example 1050] ; retrieve measured pEC50.
Key: 8.17

Exercise: Param item = H-Y[Aib]QGTFTSDFSK[αMeL]LDKK([AEEA-γGlu-C20 diacid])AQ[Aib]AFIEYLLAGGPSSGEPPPSEG[AEEA]-NH2 [Example 32] ; retrieve measured pEC50.
Key: 7.94

Exercise: Param item = H-Y[Aib]QGTFTSD[4Pal]SQ[αMeL]LDKK([Glu-γGlu-C18 diacid])AQ[αMe4Pal]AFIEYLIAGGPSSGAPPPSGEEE-NH2 [Example 1089] ; retrieve measured pEC50.
Key: 7.85

Exercise: Param item = H-Y[Aib]QGT[αMeF]TSD[4Pal][αMeS]I[αMeL]LD[Orn]K([AEEA-γGlu-C18 diacid])AQ[αMe4Pal]EFI[dE][αMeY]LIEGGPSSGEPPPSGSE-NH2 [Example 1167] ; retrieve measured pEC50.
Key: 8.67

Exercise: Param item = H-Y[Aib]QGTFTSDFS[Orn][αMeL]LD[Orn]K([γGlu-γGlu-C18 diacid])AQ[Aib]AFIEYLLEGGPSSGAPPPGGSEE-NH2 [Example 1048] ; retrieve measured pEC50.
Key: 8.16

Exercise: Param item = H-Y[Aib]QGTFTSDFS[Orn][αMeL]LDKK([AEEA-γGlu-C18 diacid])AQ[Aib]AFIEYLLEGGPSSGAPPPGGQ-NH2 [Example 159] ; retrieve measured pEC50.
Key: 8.16

Exercise: Param item = Y[Aib]QGTFTSD[4Pal]SQ[αMeL]LD[Orn]K([dE-γGlu-C18 diacid])AQ[αMe4Pal]QFIE[αMeY]LIA[Aib]GPSSGEPPPSGSEE-NH2 [Example 1106] ; retrieve measured pEC50.
Key: 8.11
